Tested on: SK-MEL-2 melanoma
measurementProtocol: NCI tumour cell line growth inhibition, 48 h
observable: TGI

molecule	TGI
O=[N+]([O-])c1cc(C2(N3CCCCC3)CCCCC2)sc1Br	21.4 µM

Look up TGI: `CCOC(=O)Cc1c(C)c2ccc(OC(C)=O)c(OC(C)=O)c2oc1=O`
> 100 µM

Value lookup for TGI; key = `CCCCCC/C=C/C#CCCCCCCCC(=O)O`
> 100 µM

###

Test system: K-562 leukemia
measurementProtocol: NCI tumour cell line growth inhibition, 48 h
observable: GI50

In the examples that follow, each entry is paired with its recorded GI50.
molecule	experimentalSystem	reportedMeasurement
Cc1c(C)c2c(c(C)c1OC(=O)CCC(=O)[O-])CCC(C)(CCCCCCCCCCC[P+](c1ccccc1)(c1ccccc1)c1ccccc1)O2 (centres undefined)	K-562 leukemia	0.182 µM
Cc1cc2c(cc1Cl)SC(N(c1ccccc1Cl)S(=O)(=O)c1ccc(Br)s1)=NS2(=O)=O	K-562 leukemia	18.7 µM
O=C(COc1ccc(/C=C2\Oc3ccc4ccccc4c3C2=O)cc1)c1ccc([N+](=O)[O-])cc1	K-562 leukemia	5.19 µM
O=c1cc(-c2ccc(Cl)cc2)[nH]c2ccccc12	K-562 leukemia	7.03 µM
O=C1c2c(O)cccc2C(C(=O)CCCCCC(=O)C2c3cccc(O)c3C(=O)c3c(O)cccc32)c2cccc(O)c21	K-562 leukemia	2.86 µM

Shifting focus to the molecule that follows.
Kindly state the measured GI50 obtained for `COc1ccccc1-n1cnc(N)c1C(=O)c1cc(OC)c(OC)c(OC)c1` with K-562 leukemia.
2.12 µM

Cited source: PubChem BioAssay (NCI)
